Examples of compounds with documented IC50 follow.
Tested on: MDA-MB-231
Test: 2D cell viability (PrestoBlue resazurin) in MDA-MB-231
Assay type: cell-based, human
Settings: Homo sapiens; MDA-MB-231 2D monolayer, 24 h post-treatment, mean ± SD; read-out: Reduction of Cell Viability 24 h IC50
# unit: nM | format: bare number

Below, 2 compounds whose answers are already recorded.
| COMPOUND | UNIT_ABBREV | IC50 |
| --- | --- | --- |
| COc1ccc2c3c(c4cc(OC)c(O)cc4c2c1)CN1CCC[C@H]1[C@H]3O [Compound (2), tylophorinidine] | nM | 118 |
| CC(=O)O[C@H]1C(=O)[C@@]2(C)[C@H]([C@H](OC(=O)c3ccccc3)[C@]3(O)C[C@H](OC(=O)[C@H](O)[C@@H](NC(=O)c4ccccc4)c4ccccc4)C(C)=C1C3(C)C)[C@]1(OC(C)=O)CO[C@@H]1C[C@@H]2O [Paclitaxel, paclitaxel, reference compound] | nM | 37.4 |

Turning now to a further record.
Record COc1cc2c3c(c4ccc(O)cc4c2cc1OC)[C@H](O)[C@@H]1CCCN1C3 [Compound (3), tylophoridicine E] . Reported IC50: 55.3
